Entry source: PubChem BioAssay AID1332

experiment: Confirmatory growth inhibition assay, mycobacterium tuberculosis h37rv, with cytotoxicity (AID 1332); conditions: M. tuberculosis H37Rv growth inhibition
In all, about 1,100 compounds went through this assay and about 170 (15%) were called active. The rule behind the calls is not given here. A selection follows.
Reply using exactly one outcome from T = active, F = inactive

# compound, category
rows = [
    ("CCCCc1ccc2nc(NC(=O)OC)[nH]c2c1", "F"),
    ("CCC[C@@H]1C[C@@H](C(=O)N[C@@H](C2O[C@H](SC)[C@H](O)[C@@H](O)[C@H]2O)[C@H](C)Cl)N(C)C1 (stereo not given in full)", "T"),
    ("Cc1c(N)c(=O)n(-c2ccccc2)n1C", "F"),
    ("Cc1cc(CC(=O)O)n(C)c1C(=O)c1ccc(Cl)cc1", "F"),
]

Now look at this entry.
Kindly provide the recorded test outcome for the following compound: C/C=C(\C)C(=O)O[C@H]1[C@H](OC(C)=O)[C@@]2(CO)C(CC1(C)C)C1=CC[C@@H]3[C@@]4(C)CC[C@H](O[C@@H]5O[C@H](C(=O)O)[C@@H](O[C@@H]6O[C@H](CO)[C@@H](O)[C@H](O)[C@H]6O)[C@H](O)[C@H]5O[C@@H]5O[C@H](CO)[C@@H](O)[C@H](O)[C@H]5O)[C@](C)(CO)C4CC[C@@]3(C)[C@]1(C)C[C@H]2O (stereo not given in full)
F

----------
assay: Confirmatory growth inhibition assay, mycobacterium tuberculosis h37rv, with cytotoxicity (AID 1332); conditions: M. tuberculosis H37Rv growth inhibition
Out of some 1,100 compounds screened, about 170 (15%) were called active. No rule for the calls is given here. Only a sample is shown.
// classify into true = active, false = inactive

Below, 2 molecules whose answers are already recorded.
# molecule, category
data = [
    ("Cn1nnnc1SCC1=C(C(=O)O)N2C(=O)[C@@H](NC(=O)[C@H](O)c3ccccc3)[C@H]2SC1", "false"),
    ("CN(C)CCCOc1nn(Cc2ccccc2)c2ccccc12", "false"),
]

# fetch the recorded call for "CN(C)CCOC(c1ccccc1)c1ccccc1" here
false

Outcome logged for "CO[C@H]1C[C@H](O[C@H]2[C@H](C)[C@@H](O[C@@H]3O[C@H](C)C[C@H](N(C)C)[C@H]3OC(C)=O)[C@@H](C)C[C@@]3(CO3)C(=O)[C@H](C)[C@@H](OC(C)=O)[C@@H](C)[C@@H](C)OC(=O)[C@@H]2C)O[C@@H](C)[C@@H]1OC(C)=O" in this assay:
false

What did the test return for "CC(C)(C)NC(=O)[C@@H]1C[C@@H]2CCCC[C@@H]2CN1C[C@@H](O)[C@H](Cc1ccccc1)NC(=O)[C@H](CC(N)=O)NC(=O)c1ccc2ccccc2n1" ?
true

Fill in: this test's call for "CC(C)(C)CC(C)(C)c1ccc(OCOCCOCCO)c(Cc2cc(C(C)(C)CC(C)(C)C)cc(Cc3cc(C(C)(C)CC(C)(C)C)ccc3OCOCCOCCO)c2OCOCCOCCO)c1" is ___
false

Write down the call the test reported for this molecule. Item: "Nc1ccc(S(=O)(=O)c2ccc(N)cc2)cc1"
true

What did the test return for "CN1C2CCCC1CC(=O)C2" ?
false

Which outcome was assigned to "CCc1nc(N)nc(N)c1-c1ccc(Cl)cc1" in this test?
true

Could you please tell me the result logged for NC(N)=NCC1COC2(CCCCC2)O1 (centres undefined) in this assay?
false

Check the results log: what was the call for "COc1cc(N)c(Cl)cc1C(=O)N[C@H]1CCN(CCCOc2ccc(F)cc2)C[C@H]1OC" ?
true

Dear colleague, could you share the recorded outcome for "CN[C@@H]1[C@H](O)[C@H](NC)[C@H]2O[C@@]3(O)C(=O)C[C@@H](C)O[C@H]3O[C@@H]2[C@H]1O" when you have a moment?
true

----------
test: Confirmatory growth inhibition assay, mycobacterium tuberculosis h37rv, with cytotoxicity (AID 1332);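 for IC50: bacteria incubated 7 days before adding Alamar blue readout reagent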; conditions: M. tuberculosis H37Rv growth inhibition; measured here: IC50 H37Rv replicates
Among all 1,100 compounds or so, about 170 (15%) were called active. Only a sample is shown.
readout-label: IC50

Would you please look over these solved cases?
# smiles-str, observed-value
data = [
    ("CNCCCC1c2ccccc2C=Cc2ccccc21", "17.4 µg/mL"),
    ("C=C[C@]12CN(C)[C@@H]3[C@H]4COC(CC41)[C@]1(C(=O)Nc4ccccc41)[C@@H]32", "> 20 µg/mL"),
    ("CO[C@H]1C[C@H](O[C@H]2[C@H](C)[C@@H](O[C@@H]3O[C@H](C)C[C@H](N(C)C)[C@H]3O)[C@@H](C)C[C@@]3(CO3)C(=O)[C@H](C)[C@@H](O)[C@@H](C)[C@@H](C)OC(=O)[C@@H]2C)O[C@@H](C)[C@@H]1O", "> 20 µg/mL"),
    ("CN(C)CCCOc1nn(Cc2ccccc2)c2ccccc12", "> 20 µg/mL"),
    ("COc1ccc2c(c1)N(C[C@H](C)CN(C)C)c1ccccc1S2", "> 20 µg/mL"),
    ("CO[C@H]1C[C@H](O[C@H]2[C@H](C)[C@@H](O[C@@H]3O[C@H](C)C[C@H](N(C)C)[C@H]3OC(C)=O)[C@@H](C)C[C@@]3(CO3)C(=O)[C@H](C)[C@@H](OC(C)=O)[C@@H](C)[C@@H](C)OC(=O)[C@@H]2C)O[C@@H](C)[C@@H]1OC(C)=O", "> 20 µg/mL"),
]

// switching to the query compound
Lookup result for "CC(C)(C)NC[C@@H](O)COc1cccc2c1CCCC2=O" ; measured IC50: > 20 µg/mL

----------
// IC50 lookup, one value per entry
test: Confirmatory growth inhibition assay, mycobacterium tuberculosis h37rv, with cytotoxicity (AID 1332);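 for IC50: bacteria incubated 7 days before adding Alamar blue readout reagent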; conditions: M. tuberculosis H37Rv growth inhibition; measured here: IC50 H37Rv replicates
In all, about 1,100 compounds went through this assay and about 170 (15%) were called active. Not all results are given here.

// solved cases for IC50 follow
# compound, IC50
records = [
    ("CCN(CC)CCNC(=O)c1cc(Cl)c(N)cc1OC", "> 20 µg/mL"),
    ("CN(C)[C@@H]1C(=O)C(C(N)=O)=C(O)[C@@]2(O)C(=O)C3=C(O)c4c(O)ccc(Cl)c4[C@@](C)(O)C3C[C@@H]12 (some centres undefined)", "13.2 µg/mL"),
    ("C[C@H]1c2cccc(O)c2C(O)=C2C(=O)C3(O)C(O)=C(C(N)=O)C(=O)[C@@H](N(C)C)[C@@H]3[C@@H](O)[C@@H]21 (some centres undefined)", "2.44 µg/mL"),
    ("CN1CCc2c(c3ccccc3n2Cc2ccccc2)C1", "> 20 µg/mL"),
]

Notebook: CNCC(O)c1ccc(O)c(OC)c1 (centres undefined) , IC50 read as > 20 µg/mL

Just so you know, measured IC50 for "C=C1c2cccc(O)c2C(O)=C2C(=O)[C@]3(O)C(O)=C(C(N)=O)C(=O)[C@@H](N(C)C)[C@@H]3[C@@H](O)[C@H]12" came out at > 17.9 µg/mL

So for "Clc1ccc(Cn2c(CN3CCCC3)nc3ccccc32)cc1" , the logged IC50 turned out to be 3.58 µg/mL

Value of IC50 reported for the compound "COc1cc(N)c(Cl)cc1C(=O)NC1CCN(Cc2ccccc2)CC1" is > 20 µg/mL

IC50 reading for CN(C)[C@@H]1C(=O)C(C(=O)NCN2CCCC2)=C(O)[C@@]2(O)C(=O)C3=C(O)c4c(O)cccc4[C@@](C)(O)C3CC12 (some centres undefined) : > 20 µg/mL

----------
experiment: Confirmatory growth inhibition assay, mycobacterium tuberculosis h37rv, with cytotoxicity (AID 1332); settings: M. tuberculosis H37Rv growth inhibition
Among all 1,100 compounds or so, about 170 (15%) were called active. The rule behind the calls is not given here. Only a sample is shown.
The reply should name one outcome from active, inactive

# molecule, category
data = [
    ("CCCCc1cc2ccccc2c(OCCN(C)C)n1", "active"),
    ("CC(=O)Oc1ccccc1C(=O)Oc1ccccc1C(=O)O", "inactive"),
    ("c1ccc(CNc2ncnc3nc[nH]c23)cc1", "inactive"),
]

Which outcome was assigned to "COc1ccc2cc3[n+](cc2c1OC)CCc1cc2c(cc1-3)OCO2" in this test?
inactive

Record request — test call for "CCCOc1cc(N)ccc1C(=O)OCCN(CC)CC"
inactive

Recorded test outcome, item "O=C(CCNNC(=O)c1ccncc1)NCc1ccccc1"
active

What call does the record list for CNCCC(Oc1ccc(C(F)(F)F)cc1)c1ccccc1 (stereo not given) ?
active

// return assay outcome for "CC(C)(Sc1cc(C(C)(C)C)c(O)c(C(C)(C)C)c1)Sc1cc(C(C)(C)C)c(O)c(C(C)(C)C)c1"
inactive

Hello, I am checking results. What call was entered for CN1CCCN(C(c2ccccc2)c2ccc(Cl)cc2)CC1 (stereo not given) ?
active

How was CC(C)(C)NCC(O)COc1cccc2c1CC(O)C(O)C2 (stereo not given) classified in this test?
inactive
